Attribution: the MegaScale stability set (Tsuboyama et al. 2023)

B1: 2K2A (parent)
chain: ELREAFRLYDKEGNGYISTDVMREILAELDETLSSEDLDAMIDEIDADGSGTVDFEEFMGVMT

Variants of: B1
test description: folding stability dG (cDNA display proteolysis); higher = more stable
conditions: PBS, room temperature
quantity kind: folding stability dG (kcal/mol)
One number for each entry, in kcal/mol.

Please go through the list and note folding stability dG for each variant.
1. Y9C
2. A27H
3. R7F
4. L38F
5. D10V
6. T52K
7. D46K

Result string:
1: 1.94; 2: 1.94; 3: 1.61; 4: 0.593; 5: 0.886; 6: 1.74; 7: 0.845
